- Tested on: E. coli BL21 (DE3)
Entries annotated with measured MIC
All answers are understood in µg/mL, so give the number only.

Examples with answers:
>>> numeric_result("CC1(C)S[C@@H]2[C@H](NC(=O)Cc3ccccc3)C(=O)N2[C@H]1C(=O)O")
12
>>> numeric_result("CC(C)(O/N=C(\\C(=O)N[C@@H]1C(=O)N2C(C(=O)[O-])=C(C[n+]3ccccc3)CS[C@H]12)c1csc(N)n1)C(=O)O")
0.38

Quick one: give measured MIC for C[C@@H](O)[C@H]1C(=O)N2C(C(=O)O)=C(S[C@@H]3CN[C@H](C(=O)N(C)C)C3)[C@H](C)[C@H]12
0.032
